- Test system: LXRa homodimer (NR concentration 270 nM)
- Test details: PBM binding z-score (relative to random genomic background probes); higher = stronger binding; sequences stand for … in GC…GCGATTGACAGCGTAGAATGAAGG
Readout name: PBM binding z-score

- Residues: "TCTTGTAGTTCAAAGGTTAAGAAAGCCGAAGCCT"
  Readout name: "PBM binding z-score"
  Readout value: 1.23
- Residues: "CCTAGCAGGCCAATCTGGGGCACTCAAGGCTTGA"
  Readout name: "PBM binding z-score"
  Readout value: -0.624
- Residues: "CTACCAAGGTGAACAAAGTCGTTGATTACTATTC"
  Readout name: "PBM binding z-score"
  Readout value: -0.0192
- Residues: "ATCTCTAGGTAAAGATAGTTCAGTGAATGCAAAT"
  Readout name: "PBM binding z-score"
  Readout value: 0.484
- Residues: "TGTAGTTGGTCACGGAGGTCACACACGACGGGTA"
  Readout name: "PBM binding z-score"
  Readout value: 2.52
- Residues: "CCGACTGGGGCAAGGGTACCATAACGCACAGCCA"
  Readout name: "PBM binding z-score"
  Readout value: -0.264
- Residues: "ATACCAGGGTGATCGTGAGGTCGTTGATACTAAC"
  Readout name: "PBM binding z-score"
  Readout value: 0.904
- Residues: "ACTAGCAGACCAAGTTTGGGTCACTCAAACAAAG"
  Readout name: "PBM binding z-score"
  Readout value: -0.696
- Residues: "AGAATGAGGTTATTAAGATCCGGGAATTGCGGTC"
  Readout name: "PBM binding z-score"
  Readout value: -0.0229
- Residues: "CTACCAAAGTGAACAAGGTCGTTGATTACTATTC"
  Readout name: "PBM binding z-score"
  Readout value: 0.427
- Residues: "GCGACTGGGGCATCAGCAGGTTACCATGACTTAA"
  Readout name: "PBM binding z-score"
  Readout value: -0.454
- Residues: "CCTTACGGATCAAGGTTATAGCACGGGTGGTACG"
  Readout name: "PBM binding z-score"
  Readout value: 0.38

====

Entries annotated with measured PBM binding z-score
- Test system: RXRa DBDmut IVT, anti-RXR (DBD mutation: RXRa K156A/R161A, NR concentration 90 nM)
- Test details: PBM binding z-score (relative to random genomic background probes); higher = stronger binding; sequences stand for … in GC…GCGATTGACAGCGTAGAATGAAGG
Readout name: PBM binding z-score

- Residues: "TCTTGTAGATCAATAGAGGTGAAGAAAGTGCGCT"
  Readout name: "PBM binding z-score"
  Readout value: 0.561
- Residues: "GCTCGGAGGACAAGCTCAGAGCTTTGTCCGTAGA"
  Readout name: "PBM binding z-score"
  Readout value: -0.613
- Residues: "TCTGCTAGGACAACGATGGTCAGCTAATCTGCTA"
  Readout name: "PBM binding z-score"
  Readout value: 0.112
- Residues: "GCAGACAGGTGAAACTCAGGTAACTCAGGGTGGC"
  Readout name: "PBM binding z-score"
  Readout value: -0.185
- Residues: "GCGACTGGGACATCAGCAGGTTACCATAACTTAA"
  Readout name: "PBM binding z-score"
  Readout value: -0.5
- Residues: "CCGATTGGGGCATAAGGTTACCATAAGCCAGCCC"
  Readout name: "PBM binding z-score"
  Readout value: 0.0114
